What pEC50 was measured for each of the following?
# Assayed Target: S1P1 receptor (Homo sapiens)
# Construct: TEV protease site; Gal4-VP16 transcription factor
# Sequence (P21453 whole entry, the tested form may be a part): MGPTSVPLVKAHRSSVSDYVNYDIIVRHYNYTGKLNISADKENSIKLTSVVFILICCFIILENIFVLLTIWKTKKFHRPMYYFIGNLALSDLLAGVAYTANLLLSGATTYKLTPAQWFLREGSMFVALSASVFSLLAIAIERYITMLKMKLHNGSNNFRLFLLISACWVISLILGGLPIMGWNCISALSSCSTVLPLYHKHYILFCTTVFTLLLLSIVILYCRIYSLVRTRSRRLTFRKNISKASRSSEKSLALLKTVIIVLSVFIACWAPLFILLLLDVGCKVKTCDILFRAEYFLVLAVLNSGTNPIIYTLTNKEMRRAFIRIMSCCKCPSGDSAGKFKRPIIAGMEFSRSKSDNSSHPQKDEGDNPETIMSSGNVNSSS
# Method Summary: S1P1 Tango Assay
# Experimental Parameters: agonist activity, recombinant EDG1-bla/U2OS cells, beta-lactamase FRET readout
# Description: The potencies and efficacies of the compounds of this invention for the S1P1 receptor can be determined by S1P1 Tango assay performed on the human cloned receptor as described herein. […] 50 μl of the cell suspension was added to each well in columns 2-23 of the plate (˜10,000 cells per well). […] The plate was finally read on EnVision for two emission channels (460 nm and 530 nm). […]
pEC50: −log10 of the molar value.

Request: // lookup pEC50 for "CC(C)Oc1ncc(-c2nc(-c3cc4cn[nH]c4cc3Cl)no2)cc1Cl"
Response: 8.00 to 9.00

Request: // lookup pEC50 for "CC(C)Oc1ccc(-c2nc(-c3ccc4[nH]ncc4c3)no2)cc1C#N"
Response: 8.00 to 9.00

Request: Suppose we examine the molecule CC(C)Oc1ccc(-c2nc(-c3cccc4c3cnn4CC(C)C(=O)O)no2)cc1Cl (centres unmarked) ; what pEC50 value has been reported?
Response: 7.00 to 8.00

Request: For "CC(C)Oc1ccc(-c2nc(-c3cccc4[nH]ncc34)no2)cc1C#N" , what is its reported pEC50?
Response: ≥ 9.00

Request: So what does the record say about pEC50 for "CC(C)Oc1ncc(-c2nc(-c3ccc4c(cnn4CCC(=O)O)c3)no2)cc1Cl" ?
Response: 7.00 to 8.00

Request: Which pEC50 is listed for "CC(C)Oc1ccc(-c2nc(-c3ccc4[nH]ncc4c3)no2)cc1Cl" ?
Response: ≥ 9.00

Request: Form field: reported pEC50 of "Cc1c(-c2noc(-c3cnc(OC(C)C)c(Cl)c3)n2)ccc2c1cnn2CCCC(=O)O"
Response: 8.00 to 9.00

Request: I'd like to know its pEC50. The molecule in question is "CC(C)Oc1ccc(-c2nc(-c3cccc4c3cnn4C3(CC(=O)O)COC3)no2)cc1Cl"
Response: 7.00 to 8.00

Request: Please report the recorded pEC50 for "CC(C)Oc1ncc(-c2nc(-c3ccc4c(cnn4CCCC(=O)O)c3)no2)cc1C#N" .
Response: ≥ 9.00

Request: Item under review: "CC(C)Oc1ncc(-c2nc(-c3ccc4[nH]ncc4c3)no2)cc1Cl" . Reported pEC50?
Response: 7.00 to 8.00

Request: Find the recorded pEC50 belonging to "CC(C)Oc1ccc(-c2nc(-c3cccc4c3cnn4CCCCC(=O)O)no2)cc1Cl" and report it.
Response: 7.00 to 8.00

Request: Returns the measured pEC50 for the input molecule. Input: "CC(C)Oc1ncc(-c2nc(-c3cc4cnn(CCCC(=O)O)c4cc3F)no2)cc1Cl"
Response: 7.00 to 8.00

Request: Any idea what its pEC50 is? The molecule is CC(C)Oc1ccc(-c2nc(-c3cccc4c3cnn4CC(O)C(=O)O)no2)cc1Cl (single isomer, unassigned)
Response: 8.00 to 9.00

Request: Which pEC50 is listed for "CC(C)Oc1ccc(-c2nc(-c3cccc4[nH]ncc34)no2)cc1Cl" ?
Response: 7.00 to 8.00
